Tested on: L-type Ca2+ channel
Experiment: Blocking of L-type Ca2+ channel by high content screening analyzer, KCl-induced calcium ion influx in SH-SY5Y cells (Fluo-4-AM)
Conditions: 50 μM compound
measured-metric: Inhibition rate of KCl-induced calcium ion influx (%)

{"compound": "CCOC(=O)C1=C(C)Nc2nc3c(c(N)c2C1c1cccc(Cl)c1)CC(C)(C)CC3 (stereo not shown) [Compound S6]", "unit-name": "%", "measured-value": 95.51}
{"compound": "CC1=C(C(=O)OC(C)C)C(c2ccccc2F)c2c(nc3c(c2N)CC(C)(C)CC3)N1 (stereo not shown) [Compound S8]", "unit-name": "%", "measured-value": 93.28}
{"compound": "CCOC(=O)C1=C(C)Nc2nc3c(c(N)c2C1c1ccccc1Cl)CC(C)(C)CC3 (stereo not shown) [Compound S1]", "unit-name": "%", "measured-value": 63.60}
{"compound": "CCOC(=O)C1=C(C)Nc2nc3c(c(N)c2C1c1cccc(F)c1)CC(C)(C)CC3 (stereo not shown) [Compound S34]", "unit-name": "%", "measured-value": 88.96}
{"compound": "CCOC(=O)C1=C(C)Nc2nc3c(c(N)c2C1c1cccc(C(F)(F)F)c1)CC(C)(C)CC3 (stereo not shown) [Compound S4]", "unit-name": "%", "measured-value": 85.17}
{"compound": "COC(=O)C1=C(C)Nc2nc3c(c(N)c2C1c1ccccc1)CN(C)CC3 (stereo not shown) [Compound S12]", "unit-name": "%", "measured-value": 52.61}
{"compound": "CCOC(=O)C1=C(C)N(C)c2nc3c(c(N)c2C1c1ccccc1Cl)CC(C)(C)CC3 (stereo not shown) [Compound S38]", "unit-name": "%", "measured-value": 51.19}
{"compound": "COC(=O)C1=C(C)Nc2nc3c(c(N)c2C1c1ccccc1)CC(C)(C)CC3 (stereo not shown) [Compound S7]", "unit-name": "%", "measured-value": 72.98}
{"compound": "CC1=C(C(=O)OCCN(C)C)C(c2ccccc2)c2c(nc3c(c2N)CC(F)(F)CC3)N1 (stereo not shown) [Compound S29]", "unit-name": "%", "measured-value": 57.19}
{"compound": "CCOC(=O)C1=C(C)Nc2nc3c(c(N)c2C1c1cccc([N+](=O)[O-])c1)CC(C)(C)CC3 (stereo not shown) [Compound S31]", "unit-name": "%", "measured-value": 93.34}
{"compound": "CC1=C(C(=O)OCC2CC2)C(c2ccccc2Cl)c2c(nc3c(c2N)CC(C)(C)CC3)N1 (stereo not shown) [Compound S11]", "unit-name": "%", "measured-value": 75.06}
{"compound": "COCCOC(=O)C1=C(C)Nc2nc3c(c(N)c2C1c1ccccc1Cl)CC(C)(C)CC3 (stereo not shown) [Compound S10]", "unit-name": "%", "measured-value": 83.29}
{"compound": "COC(=O)C1=C(C)Nc2nc3c(c(N)c2C1c1cccc([N+](=O)[O-])c1)CC(C)(C)CC3 (stereo not shown) [Compound S30]", "unit-name": "%", "measured-value": 80.73}

====

Readings of Relative neuron activity (average) for the listed compounds
Test system: primary cortical neuron cells
Conditions: 0.1 μM, 24 h incubation
measured-metric: Relative neuron activity (average) (%)

{"compound": "CCOC(=O)C1=C(C)Nc2nc3c(c(N)c2C1c1cccc(Cl)c1)CC(C)(C)CC3 (stereo not drawn) [Compound S6]", "measured-metric": "Relative neuron activity (average)", "measured-value": 105.3}
{"compound": "CC1=C(C(=O)OC(C)C)C(c2ccccc2F)c2c(nc3c(c2N)CC(C)(C)CC3)N1 (stereo not drawn) [Compound S8]", "measured-metric": "Relative neuron activity (average)", "measured-value": 101.7}
{"compound": "COC(=O)C1=C(C)Nc2nc3c(c(N)c2C1c1cccc(Cl)c1Cl)CC(C)CC3 (stereo not drawn) [Compound S27]", "measured-metric": "Relative neuron activity (average)", "measured-value": 102.9}
{"compound": "CC1=C(C(=O)OC(C)C)C(c2cccc(F)c2)c2c(nc3c(c2N)CC(C)(C)CC3)N1 (stereo not drawn) [Compound S3]", "measured-metric": "Relative neuron activity (average)", "measured-value": 102.4}
{"compound": "CCOC(=O)C1=C(C)Nc2nc3c(c(N)c2C1c1ccccc1Cl)CC(C)(C)CC3 (stereo not drawn) [Compound S1]", "measured-metric": "Relative neuron activity (average)", "measured-value": 113.9}
{"compound": "COCCOC(=O)C1=C(C)Nc2nc3c(c(N)c2C1c1ccccc1Cl)CC(C)(C)CC3 (stereo not drawn) [Compound S10]", "measured-metric": "Relative neuron activity (average)", "measured-value": 96.3}
{"compound": "COC(=O)C1=C(C)Nc2nc3c(c(N)c2C1c1cccc([N+](=O)[O-])c1)CCCC3C (stereo not drawn) [Compound S15]", "measured-metric": "Relative neuron activity (average)", "measured-value": 105.8}
{"compound": "CCOC(=O)C1=C(C)Nc2nc3c(c(N)c2C1c1cccc([N+](=O)[O-])c1)CC(Cl)(Cl)CC3 (stereo not drawn) [Compound S20]", "measured-metric": "Relative neuron activity (average)", "measured-value": 98.5}
{"compound": "CC1=C(C(=O)OC(C)C)C(c2ccccc2Cl)c2c(nc3c(c2N)CC(C)(C)CC3)N1 (stereo not drawn) [Compound S32]", "measured-metric": "Relative neuron activity (average)", "measured-value": 106.5}

====

System: primary cortical neuron cells
Conditions: 0.01 μM, 24 h incubation
measured-metric: Relative neuron activity (average) (%)

{"compound": "CC1=C(C(=O)OC(C)C)C(c2cccc(F)c2)c2c(nc3c(c2N)CC(C)(C)CC3)N1 (stereo not drawn)", "measured-metric": "Relative neuron activity (average)", "unit-name": "%", "measured-value": 107.7}
{"compound": "COC(=O)C1=C(C)Nc2nc3c(c(N)c2C1c1cccc(Cl)c1Cl)CC(C)CC3 (stereo not drawn)", "measured-metric": "Relative neuron activity (average)", "unit-name": "%", "measured-value": 123.7}
{"compound": "CCOC(=O)C1=C(C)Nc2nc3c(c(N)c2C1c1cccc([N+](=O)[O-])c1)CC(Cl)(Cl)CC3 (stereo not drawn)", "measured-metric": "Relative neuron activity (average)", "unit-name": "%", "measured-value": 103.9}
{"compound": "CC1=C(C(=O)OC(C)C)C(c2ccccc2Cl)c2c(nc3c(c2N)CC(C)(C)CC3)N1 (stereo not drawn)", "measured-metric": "Relative neuron activity (average)", "unit-name": "%", "measured-value": 115.5}
{"compound": "COCCOC(=O)C1=C(C)Nc2nc3c(c(N)c2C1c1ccccc1Cl)CC(C)(C)CC3 (stereo not drawn)", "measured-metric": "Relative neuron activity (average)", "unit-name": "%", "measured-value": 120.7}
{"compound": "CCOC(=O)C1=C(C)Nc2nc3c(c(N)c2C1c1ccccc1Cl)CC(C)(C)CC3 (stereo not drawn)", "measured-metric": "Relative neuron activity (average)", "unit-name": "%", "measured-value": 110.6}
{"compound": "CC1=C(C(=O)OC(C)C)C(c2ccccc2F)c2c(nc3c(c2N)CC(C)(C)CC3)N1 (stereo not drawn)", "measured-metric": "Relative neuron activity (average)", "unit-name": "%", "measured-value": 114.7}
{"compound": "CCOC(=O)C1=C(C)Nc2nc3c(c(N)c2C1c1cccc(Cl)c1)CC(C)(C)CC3 (stereo not drawn)", "measured-metric": "Relative neuron activity (average)", "unit-name": "%", "measured-value": 107.1}
{"compound": "COC(=O)C1=C(C)Nc2nc3c(c(N)c2C1c1cccc([N+](=O)[O-])c1)CCCC3C (stereo not drawn)", "measured-metric": "Relative neuron activity (average)", "unit-name": "%", "measured-value": 111.9}

====

Test system: primary cortical neuron cells
Conditions: 1 μM, 24 h incubation

{"compound": "CC1=C(C(=O)OC(C)C)C(c2ccccc2F)c2c(nc3c(c2N)CC(C)(C)CC3)N1 (stereo not drawn)", "Relative neuron activity (average) (%)": 97.7}
{"compound": "COC(=O)C1=C(C)Nc2nc3c(c(N)c2C1c1cccc(Cl)c1Cl)CC(C)CC3 (stereo not drawn)", "Relative neuron activity (average) (%)": 43.0}
{"compound": "CC1=C(C(=O)OC(C)C)C(c2ccccc2Cl)c2c(nc3c(c2N)CC(C)(C)CC3)N1 (stereo not drawn)", "Relative neuron activity (average) (%)": 98.6}
{"compound": "CCOC(=O)C1=C(C)Nc2nc3c(c(N)c2C1c1cccc([N+](=O)[O-])c1)CC(Cl)(Cl)CC3 (stereo not drawn)", "Relative neuron activity (average) (%)": 47.5}
{"compound": "CC1=C(C(=O)OC(C)C)C(c2cccc(F)c2)c2c(nc3c(c2N)CC(C)(C)CC3)N1 (stereo not drawn)", "Relative neuron activity (average) (%)": 98.8}
{"compound": "COCCOC(=O)C1=C(C)Nc2nc3c(c(N)c2C1c1ccccc1Cl)CC(C)(C)CC3 (stereo not drawn)", "Relative neuron activity (average) (%)": 70.3}
{"compound": "COC(=O)C1=C(C)Nc2nc3c(c(N)c2C1c1cccc([N+](=O)[O-])c1)CCCC3C (stereo not drawn)", "Relative neuron activity (average) (%)": 65.9}
{"compound": "CCOC(=O)C1=C(C)Nc2nc3c(c(N)c2C1c1cccc(Cl)c1)CC(C)(C)CC3 (stereo not drawn)", "Relative neuron activity (average) (%)": 99.0}
{"compound": "CCOC(=O)C1=C(C)Nc2nc3c(c(N)c2C1c1ccccc1Cl)CC(C)(C)CC3 (stereo not drawn)", "Relative neuron activity (average) (%)": 97.9}
